Every entry's value here was drawn from ChEMBL document CHEMBL1122631.

# System: Mus musculus
# procedure.summary: Antidepressant activity was measured by the prevention of tetrabenazine (TBZ) induced ptosis in mice after intraperitoneal administration of the compound.
# Format: functional
# condition.context: ip
Please provide measured ED50 for the entries that follow.
# number only, unit mg/kg dropped from output

Consider the molecule shown here: CN1CCC[C@H]2[C@H](c3ccc(O)cc3)c3ccccc3[C@H]21 What is its recorded ED50? 5

Value lookup for ED50; key = c1ccc2c(c1)[C@@H](c1ccncc1)[C@@H]1CCCN[C@H]21 2

Sample CCCCOc1ccc([C@@H]2c3ccccc3[C@@H]3[C@H]2CCCN3C)cc1 — what was its ED50? 10

Entry under review: Cc1ccc([C@@H]2c3cc(O)ccc3[C@H]3NCCC[C@@H]23)cc1N . Reported ED50? 3

For COc1ccc([C@@H]2c3ccccc3[C@@H]3[C@H]2CCCN3C)cc1 , what is its reported ED50? 5

# get_value(readout='ED50', item= Cc1ccc([C@@H]2c3cc(O)ccc3[C@H]3NCCC[C@@H]23)cc1 ) 1

# get_value(readout='ED50', item= Oc1ccc([C@@H]2c3ccccc3[C@H]3NCCC[C@@H]23)cc1 ) 2

----------
# Species on record: Rattus norvegicus
# procedure.summary: Compound was tested for inhibition of uptake of [14C]5-HT (5-HT) into rat whole brain, in vitro.
# Format: functional
measured.metric: IC50

Which IC50 value is on record for CN1CCC[C@H]2[C@H](c3ccc(N)cc3)c3ccccc3[C@H]21 ? ~100 µM

// query IC50 value for entry CN1CCC[C@H]2[C@H](c3ccccc3)c3ccccc3[C@H]21 ~100 µM

# get_value(readout='IC50', item= c1ccc([C@@H]2c3ccccc3[C@H]3NCCC[C@@H]23)cc1 ) ~100 µM

----------
# procedure.summary: Therapeutic index (TI), ratio of LD50 and ED50 (TBZ) in mice after i.p. administration
# condition.context: mouse, in vivo, ip
measured.metric: selectivity ratio
Enter a number only.

Would you mind telling me what selectivity ratio value was observed for CCCCOc1ccc([C@@H]2c3ccccc3[C@@H]3[C@H]2CCCN3C)cc1 ? 14

Consider the compound shown here: CN1CCC[C@H]2[C@H](c3ccc(O)cc3)c3ccccc3[C@H]21 What is its recorded selectivity ratio? 36

Query: selectivity ratio; subject: Cc1ccc([C@@H]2c3cc(O)ccc3[C@H]3NCCC[C@@H]23)cc1N 70

// query selectivity ratio value for entry CN1CCC[C@H]2[C@H](c3ccccc3)c3ccccc3[C@H]21 185

Given the compound Nc1ccc([C@@H]2c3cc(O)ccc3[C@H]3NCCC[C@@H]23)cc1 , what is its reported selectivity ratio? 1500

What measured selectivity ratio goes with Cc1ccc([C@@H]2c3ccccc3[C@@H]3[C@H]2CCCN3C)cc1 ? 77

I'd like to know its selectivity ratio. The compound in question is c1ccc2c(c1)[C@@H](c1ccncc1)[C@@H]1CCCN[C@H]21 10

What value of measured selectivity ratio is listed for Cc1ccc([C@@H]2c3ccccc3[C@H]3NCCC[C@@H]23)cc1N ? 20

Recorded selectivity ratio of Cc1ccc([C@H]2c3ccccc3[C@H]3NCCC[C@@H]23)cc1 , please. 6

What selectivity ratio value was documented for this compound, Cc1ccc([C@@H]2c3cc(O)ccc3[C@H]3NCCC[C@@H]23)cc1 ? 67

Would you mind telling me what selectivity ratio value was observed for Oc1ccc([C@@H]2c3ccccc3[C@H]3NCCC[C@@H]23)cc1 ? 15
